Where do the numbers come from? From PubChem BioAssay (Tox21).

assay: A CellTox Green Cytotoxicity Assay to monitor cytotoxicity in HepG2 cells - 0 hour (AID 1224882); conditions: CellTox Green fluorescence; series mostly up to 76.8 µM; further: on the % scale 0 is the no-effect control and ±100 the full control effect; nearly all actives have a fitted effect of over 35% in size
Activity calls are given as the source filed them. The call rests on the fitted dose curve; in most records, active means well fitted activation curve with a large enough effect in the repeat runs; inconclusive means weak or mixed curves; inactive means flat fitted curve, though single readings scatter.
Measure: cytotoxicity

The following molecules have reported results that may help.
>>> df
                                   molecule  recorded_result
0                 O=C(O)c1ccccc1NCCc1ccccc1         inactive
1  N#C/C(=C1\SCC(c2ccccc2Cl)S1)n1ccnc1 (stereo not drawn)         inactive
2  O=c1[nH]c2ccc(S(=O)CCN3CCC(Cc4ccc(F)cc4)CC3)cc2o1 (stereo not drawn)         inactive
3     COC(=O)c1cc(Cl)ccc1NS(=O)(=O)C(F)(F)F         inactive
4    c1cc[c]([Bi]([c]2ccccc2)[c]2ccccc2)cc1         inactive
5                CNC(=O)N(c1ccccc1)c1ccccc1         inactive

cytotoxicity in this record for `C1COCO1` : inactive

The molecule identified as `CCCCCCCCCCCC[N+](C)(C)CC(=O)[O-]` registered its cytotoxicity at inactive

* * *

molecular target: Cytochrome P450 1A2 (Homo sapiens); experiment: Cytochrome P450 Family 1 Subfamily A Member 2 (CYP1A2) small molecule antagonists: luciferase reporter qHTS assay (AID 1671199); conditions: P450-Glo CYP1A2 enzyme, luciferin luminescence, 1 h; series mostly up to 53 µM; further: on the % scale 0 is the no-effect control and ±100 the full control effect; nearly all actives have a fitted effect of over 50% in size
Inconclusive results are not listed. The source made the active and inactive calls. Calls come from the whole dose curve; as a rule, active = well fitted inhibition curve with a large enough effect in the repeat runs; inconclusive = weak or mixed curves; inactive = no such curve, though single readings can be large or run the other way.
Pick one and only one: YES (active), NO (inactive)

>>> df
                                   molecule  group_label
0  CCC1(C)CC(=O)NC1=O (configuration not stated)           NO
1  CCN(Cc1cccc(S(=O)(=O)O)c1)c1ccc(C(=C2C=CC(=[N+](CC)Cc3cccc(S(=O)(=O)[O-])c3)C=C2)c2ccccc2)cc1           NO
2  CCC(C)(O)CCC=C(C)C (configuration not stated)           NO

**Query** # outcome recorded in this test, key = `CNCCCC1c2ccccc2C=Cc2ccccc21`
**Result** NO

* * *

assay: qHTS assay to identify small molecule antagonists of the estrogen related receptor (ERR) signaling pathway from Tox21 library (AID 1224848); conditions: ERR reporter cell line, luciferase antagonist mode, 18 h; series mostly up to 92.4 µM; further: nearly all actives have a fitted effect of over 50% in size
Records with an inconclusive call do not appear. Calls of active or inactive are those of the source. The call rests on the fitted dose curve; in most records, active means well fitted inhibition curve with a large enough effect in the repeat runs; inconclusive means weak or mixed curves; inactive means no such curve, though single readings can be large or run the other way.
The reply should be one of these categories: active, inactive

As a guide, the following entries are already answered.
>>> print(df.to_string())
                                   compound  group_label
0  CCN(Cc1cccc(S(=O)(=O)O)c1)c1ccc(C(=C2C=CC(=[N+](CC)Cc3cccc(S(=O)(=O)[O-])c3)C=C2)c2ccccc2)cc1     inactive
1    c1cc[c]([Bi]([c]2ccccc2)[c]2ccccc2)cc1       active
2                                    COCCOC       active
3                            Cc1nc2ccccc2s1     inactive

**Query** Write down the call the test reported for this compound. Item: `C=CC(=C)CCCC(C)(C)OC(C)=O`
**Result** inactive

**Query** Any idea what this test logged for `CC#N` ?
**Result** inactive

**Query** Hi, do you know how `CCCc1c(OCCCOc2ccc(OCC(=O)O)cc2)ccc(C(C)=O)c1O` came out in this test?
**Result** inactive

**Query** What was the test verdict on CCCC1C(CC)=CC(CC)=CN1c1ccccc1 (stereo not given) ?
**Result** active

**Query** I'd appreciate the recorded outcome for `CCC(C)=O` from this test.
**Result** inactive

* * *

experiment: qHTS RealTime-Glo MT Cell Viability Assay in HepG2 cells - 40 hour (AID 1224870); conditions: RealTime-Glo luminescence; series mostly up to 76.8 µM; further: on the % scale 0 is the no-effect control and ±100 the full control effect; nearly all actives have a fitted effect of over 50% in size
Inconclusive results are not listed. The source made the active and inactive calls. The call rests on the fitted dose curve; in most records, active means well fitted cell-killing curve with a large enough effect in the repeat runs; inconclusive means weak or mixed curves, or effect the other way; inactive means flat fitted curve, though single readings scatter.
Reported activity change, negative = cytotoxic values for the following molecules.

Worked cases, activity change, negative = cytotoxic given:
In [3]: df
Out[3]:
                                chem_smiles                                measure                  recorded_result
0  CN1CCN(c2c(F)cc3c(=O)c(C(=O)O)cn4c3c2OCN4C)CC1  activity change, negative = cytotoxic   -3.22% [at 15.8 µM] (inactive)
1                       C=CCCCCCCCCCCCCCCCC  activity change, negative = cytotoxic    26.4% [at 6.97 µM] (inactive)
2  CCCC(=O)O[C@]1(C(=O)COC(=O)CC)CC[C@H]2[C@@H]3CCC4=CC(=O)CC[C@]4(C)[C@H]3[C@@H](O)C[C@@]21C  activity change, negative = cytotoxic  -0.605% [at 15.8 µM] (inactive)

// next entry
// sample `[O]=[Bi]` , its activity change, negative = cytotoxic was 9.58% [at 6.97 µM] (inactive)

* * *

assay: qHTS assay for small molecules that induce genotoxicity in human embryonic kidney cells expressing luciferase-tagged ATAD5 - cell viability (AID 651634); details: HEK293T ATAD5-luc cells viability, CellTiter-Fluor, 15.5 h; series mostly up to 83.3 µM; further: nearly all actives have a fitted effect of over 25% in size
Records with an inconclusive call do not appear. Activity calls are given as the source filed them. Calls follow the shape of the full dose curve.
Just give me one of these, please: 1 (active), -1 (inactive)

Consider the following illustrative entries.
Compound	Group Label
CCC(Cc1ccccc1)(C(=O)c1ccc(N2CCOCC2)cc1)N(C)C (stereo not drawn)	-1
CCc1cccc(N(C)C(N)=Nc2cccc3ccccc23)c1	-1
O=C(O)c1snc(Cl)c1Cl	-1
CCCOC(=O)c1ccc(N)cc1	-1
CCC(=O)Oc1ccc(/C(CC)=C(\CC)c2ccc(OC(=O)CC)cc2)cc1	-1

**Query** Would you mind telling me which call this test gave `CC(C)CCCCCOC(=O)CCCCC(=O)OCCCCCC(C)C` ?
**Result** -1

**Query** Fill in: this test's call for `O=C(/C=C/c1ccccc1)OCCCc1ccccc1` is ___
**Result** -1

**Query** // return assay outcome for `CC(=O)Nc1ccccc1C`
**Result** -1

**Query** Recorded call for `COCc1c(C(C)C)nc(C(C)C)c(/C=C/[C@@H](O)C[C@@H](O)CC(=O)O)c1-c1ccc(F)cc1` ?
**Result** -1

**Query** Any idea what this test logged for `CC(=O)OCC(=O)[C@H]1CC[C@H]2[C@@H]3CCC4=CC(=O)CC[C@]4(C)[C@H]3CC[C@]12C` ?
**Result** -1

**Query** In this assay, the call recorded for `CC1=C(/C=C/C(C)=C\C=C\C(C)=C\C(=O)O)C(C)(C)CCC1` was what?
**Result** -1

**Query** Look up the recorded call for `CN1CCCN=C1/C=C/c1cccs1` in this test.
**Result** -1

**Query** # fetch the recorded call for Cc1ccccc1N1C(=O)c2cc(S(N)(=O)=O)c(Cl)cc2NC1C (stereo not drawn) here
**Result** -1

**Query** Outcome logged for `CNC(=S)NC` in this assay:
**Result** -1

**Query** Please state the recorded outcome for this compound: `CN(C)CCOC1=Cc2ccccc2Sc2ccc(Cl)cc21`
**Result** -1

**Query** // param item: `CO[C@H]1C=CO[C@@]2(C)Oc3c(C)c(O)c4c(O)c(c5c(c4c3C2=O)=NC2(CCN(CC(C)C)CC2)N=5)NC(=O)/C(C)=C\C=C/[C@H](C)[C@H](O)[C@@H](C)[C@@H](O)[C@@H](C)[C@H](OC(C)=O)[C@@H]1C` ; yields the recorded call
**Result** 1

**Query** Entry O=c1[nH]c2ccc(S(=O)CCN3CCC(Cc4ccc(F)cc4)CC3)cc2o1 (stereo not drawn) : call = ?
**Result** -1

**Query** Recorded call for `Cc1oncc1C(=O)Nc1ccc(C(F)(F)F)cc1` ?
**Result** -1

**Query** I'd appreciate the recorded outcome for `COC(=O)[C@@H]1CC2=CC(=O)CC[C@]2(C)[C@@]23O[C@@H]2C[C@@]2(C)[C@@H](CC[C@@]24CCC(=O)O4)[C@H]13` from this test.
**Result** -1

**Query** Write down the call the test reported for this compound. Item: `CC(=O)Nc1ccc(N)cc1`
**Result** -1

**Query** Tell me the recorded outcome of this test for `CC(=O)[C@H]1CC[C@H]2[C@@H]3C=CC4=CC(=O)CC[C@@]4(C)[C@@H]3CC[C@]12C` .
**Result** -1

**Query** Please let me know the test result on file for `O=C(O)c1cccnc1C(=O)O` .
**Result** -1

**Query** Tell me the assay call for CC1CN(c2cc3c(cc2F)c(=O)c(C(=O)O)cn3-c2ccc(F)cc2F)CCN1 (stereo not drawn) please.
**Result** -1
